Test: self-splicing fitness, log relative to wild type (ln ratio); higher = more splicing; Tetrahymena group I intron in knt gene, E. coli kanamycin selection, DiMSum; sequences stand for … in CUCUCU…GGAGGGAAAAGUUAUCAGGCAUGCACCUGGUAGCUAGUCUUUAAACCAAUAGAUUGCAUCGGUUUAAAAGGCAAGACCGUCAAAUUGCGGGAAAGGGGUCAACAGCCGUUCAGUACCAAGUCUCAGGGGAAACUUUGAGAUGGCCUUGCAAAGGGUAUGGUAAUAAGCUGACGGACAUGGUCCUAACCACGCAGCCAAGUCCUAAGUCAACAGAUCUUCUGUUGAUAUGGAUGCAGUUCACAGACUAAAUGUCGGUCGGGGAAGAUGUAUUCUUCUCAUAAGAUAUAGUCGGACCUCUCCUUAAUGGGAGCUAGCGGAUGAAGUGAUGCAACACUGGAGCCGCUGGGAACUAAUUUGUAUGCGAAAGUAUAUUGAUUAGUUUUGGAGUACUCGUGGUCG;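 note: selection with 25 µg/mL kanamycin versus none on LB agar overnight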
Settings: 30 °C
readoutLabel: self-splicing fitness (ln)
Answer with the value's number alone.

Prompt: Can you look up the measured self-splicing fitness (ln) of UCUGAGCAAUAUUACGGUCU for me?
Response: -2.46

Prompt: State the recorded self-splicing fitness (ln) for this entry: CGUAAGCAAUAUUACGAAGA
Response: -3.07

Prompt: self-splicing fitness (ln) lookup needed for CGUGAGCAAUAUUACGUUGC , thanks.
Response: -2.69

Prompt: GET /values?readout=self-splicing fitness (ln)&item= ACAAAGCAAUAUUACGCCAA
Response: -2.34

Prompt: Quick one: self-splicing fitness (ln) for AGUCAGCAAUAUUACGAAGG ?
Response: -1.27

Prompt: I have this sequence here, CCACAGCAAUAUUACGGCCC , and I need its recorded self-splicing fitness (ln).
Response: -2.78

Prompt: Given the sequence UUUCAGCAAUAUUACGCAAU , what is its reported self-splicing fitness (ln)?
Response: -2.36

Prompt: // lookup self-splicing fitness (ln) for ACCAAGCAAUAUUACGAAGC
Response: -3.94

Prompt: GET /values?readout=self-splicing fitness (ln)&item= ACCAAGCAAUAUUACGCUCG
Response: -2.2

Prompt: self-splicing fitness (ln) lookup needed for GAGAAGCAAUAUUACGAGUU , thanks.
Response: -1.95

Prompt: Which measured self-splicing fitness (ln) value corresponds to UUGCAGCAAUAUUACGUAUU ?
Response: -2.57

Prompt: I would be grateful if you could share the reported self-splicing fitness (ln) for GGAAAGCAAUAUUACGGGGA .
Response: -2.87

Prompt: For CGUCAGCAAUAUUACGCCCU , what is its reported self-splicing fitness (ln)?
Response: -1.89

Prompt: Given AGCCAGCAAUAUUACGCACA , state its recorded self-splicing fitness (ln).
Response: -1.96

Prompt: Any idea what self-splicing fitness (ln) was measured for CGUUAGCAAUAUUACGGGAG ?
Response: -3.32

Prompt: Tell me the measured self-splicing fitness (ln) of UGAAAGCAAUAUUACGACAU , please.
Response: -1.26

Prompt: Can you share its self-splicing fitness (ln)? I mean this sequence: GUCCAGCAAUAUUACGUUUC
Response: -0.538

Prompt: Any idea what self-splicing fitness (ln) was measured for GUCAAGCAAUAUUACGAGCA ?
Response: -1

Prompt: So what's the measured self-splicing fitness (ln) for this one? GAGAAGCAAUAUUACGGAGC
Response: -3.83

Prompt: # input sequence: GUAGAGCAAUAUUACGGUCU ; wanted: its self-splicing fitness (ln)
Response: -1.46

Prompt: Fill in: self-splicing fitness (ln) of CGACAGCAAUAUUACGCUGC is ___
Response: -3.02

Prompt: Can you look up the measured self-splicing fitness (ln) of UGCCAGCAAUAUUACGAUGA for me?
Response: -1.99

Prompt: Reported self-splicing fitness (ln) for CAAUAGCAAUAUUACGUAAC : what is it?
Response: -3.94

Prompt: Field request: self-splicing fitness (ln) | item: CGGCAGCAAUAUUACGGACG
Response: -2.73

Prompt: GET /values?readout=self-splicing fitness (ln)&item= CCCAAGCAAUAUUACGUCUC
Response: -2.71

Prompt: Can you look up the measured self-splicing fitness (ln) of AGAAAGCAAUAUUACGACCU for me?
Response: 0.52

Prompt: Recorded self-splicing fitness (ln) for CUCUAGCAAUAUUACGGGGC , please?
Response: -2.81

Prompt: What value of self-splicing fitness (ln) has been reported for the following sequence? CAACAGCAAUAUUACGGGAC
Response: -4.18

Prompt: // query self-splicing fitness (ln) value for entry UUGCAGCAAUAUUACGUUUC
Response: -3.59

Prompt: What self-splicing fitness (ln) value was documented for this sequence, AUGCAGCAAUAUUACGAAAU ?
Response: -2.02

Prompt: Which self-splicing fitness (ln) value is on record for GCGUAGCAAUAUUACGACAC ?
Response: -0.714

Prompt: Can you look up the measured self-splicing fitness (ln) of ACCCAGCAAUAUUACGUACA for me?
Response: -1.85

Prompt: Request the reported self-splicing fitness (ln) associated with GCGUAGCAAUAUUACGUAUA
Response: -2.15

Prompt: Given the entry ACUAAGCAAUAUUACGGGGA , report its measured self-splicing fitness (ln).
Response: -1.84

* * *

Can you tell me self-splicing fitness (ln) for the items I'm about to list?
Assay: self-splicing fitness, log relative to wild type (ln ratio); higher = more splicing; Tetrahymena group I intron in knt gene, E. coli kanamycin selection, DiMSum; sequences stand for … in CUCUCU…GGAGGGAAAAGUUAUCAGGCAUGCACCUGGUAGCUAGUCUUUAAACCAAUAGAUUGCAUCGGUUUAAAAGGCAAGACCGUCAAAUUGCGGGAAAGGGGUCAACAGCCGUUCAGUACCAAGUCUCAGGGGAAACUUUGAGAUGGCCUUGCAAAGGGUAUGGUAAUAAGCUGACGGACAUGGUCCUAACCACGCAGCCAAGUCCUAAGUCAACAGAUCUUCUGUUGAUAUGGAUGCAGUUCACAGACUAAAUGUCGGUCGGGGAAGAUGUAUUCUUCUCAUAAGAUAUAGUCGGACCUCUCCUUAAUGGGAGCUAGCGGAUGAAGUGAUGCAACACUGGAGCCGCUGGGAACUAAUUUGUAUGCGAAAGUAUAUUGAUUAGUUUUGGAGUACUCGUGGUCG
Conditions: 30 °C
Give the figure only, with no unit attached.

Prompt: Fill blank: measured self-splicing fitness (ln) of the sequence UUAUAGCAAUAUUACGCGUA is ____.
Response: -0.829

Prompt: Which self-splicing fitness (ln) is reported for this sequence? AACGAGCAAUAUUACGCCGG
Response: -2.42

Prompt: Reported self-splicing fitness (ln) for UCGGAGCAAUAUUACGACAC : what is it?
Response: -3.18

Prompt: # get_value(readout='self-splicing fitness (ln)', item= CGGUAGCAAUAUUACGGACA )
Response: -1.91

Prompt: Item GUCUAGCAAUAUUACGUAGC has what recorded self-splicing fitness (ln)?
Response: -1.45

Prompt: Could you share which self-splicing fitness (ln) value was measured for UCUUAGCAAUAUUACGACGC ?
Response: -2.07

Prompt: What value of measured self-splicing fitness (ln) is listed for CCCGAGCAAUAUUACGUAAC ?
Response: -3.43

Prompt: Need self-splicing fitness (ln), item AUAGAGCAAUAUUACGCAGG
Response: -3.06

Prompt: So what's the measured self-splicing fitness (ln) for this one? UCGGAGCAAUAUUACGCUUG
Response: -3.64

Prompt: So what's the measured self-splicing fitness (ln) for this one? UGCUAGCAAUAUUACGAUGA
Response: -1

Prompt: Record request: self-splicing fitness (ln) value, item UCCAAGCAAUAUUACGGCAA
Response: -0.817

Prompt: What does the data say about its self-splicing fitness (ln)? Entry: CAGGAGCAAUAUUACGAUAC
Response: -2.81

Prompt: Form field: reported self-splicing fitness (ln) of CCAAAGCAAUAUUACGUGUA
Response: -3.72

Prompt: // lookup self-splicing fitness (ln) for CGAGAGCAAUAUUACGGAAU
Response: -3.06

Prompt: Sample UGCUAGCAAUAUUACGAUAC — what was its self-splicing fitness (ln)?
Response: -2.57

Prompt: Quick check: self-splicing fitness (ln) of AUAGAGCAAUAUUACGCGGU ?
Response: -4.29

* * *

Test: self-splicing fitness, log relative to wild type (ln ratio); higher = more splicing; Tetrahymena group I intron in knt gene, E. coli kanamycin selection, DiMSum; sequences stand for … in CUCUCU…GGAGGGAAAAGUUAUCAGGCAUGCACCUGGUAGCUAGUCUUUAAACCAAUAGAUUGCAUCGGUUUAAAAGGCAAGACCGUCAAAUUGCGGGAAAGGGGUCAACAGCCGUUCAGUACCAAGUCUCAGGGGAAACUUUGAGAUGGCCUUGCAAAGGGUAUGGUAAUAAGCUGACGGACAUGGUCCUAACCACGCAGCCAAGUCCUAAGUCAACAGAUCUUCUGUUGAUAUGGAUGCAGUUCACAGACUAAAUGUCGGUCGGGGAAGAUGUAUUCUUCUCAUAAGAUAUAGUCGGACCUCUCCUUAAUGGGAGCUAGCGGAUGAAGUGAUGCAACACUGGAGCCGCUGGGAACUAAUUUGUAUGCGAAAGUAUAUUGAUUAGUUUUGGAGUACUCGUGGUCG
Conditions: 30 °C
Please provide measured self-splicing fitness (ln) for the entries that follow.
Just the number, please, no unit attached.

Prompt: What value of self-splicing fitness (ln) has been reported for the following sequence? GGACAGCAAUAUUACGUAAU
Response: -0.0161

Prompt: // returns reported self-splicing fitness (ln) for input GCGUAGCAAUAUUACGGUGA
Response: -1.73

Prompt: Value lookup for self-splicing fitness (ln); key = ACGUAGCAAUAUUACGGUGC
Response: -3.86

Prompt: Report self-splicing fitness (ln) for GCAGAGCAAUAUUACGUCUU please.
Response: -0.897

Prompt: Look at this sequence and give its reported self-splicing fitness (ln). UCGCAGCAAUAUUACGGUUG
Response: -2.75

Prompt: Any idea what self-splicing fitness (ln) was measured for UUUUAGCAAUAUUACGACAU ?
Response: -2.16

Prompt: What value of self-splicing fitness (ln) has been reported for the following sequence? GCCCAGCAAUAUUACGCUAG
Response: -3.11

Prompt: If you can, please state the reported self-splicing fitness (ln) value of ACUCAGCAAUAUUACGAUAC .
Response: -0.894

Data origin, for the record: the supplement of paper PMC7877785
